# study-target: Lethal factor protease (Bacillus anthracis)
# Sequence (P15917 34-809 limits assumed): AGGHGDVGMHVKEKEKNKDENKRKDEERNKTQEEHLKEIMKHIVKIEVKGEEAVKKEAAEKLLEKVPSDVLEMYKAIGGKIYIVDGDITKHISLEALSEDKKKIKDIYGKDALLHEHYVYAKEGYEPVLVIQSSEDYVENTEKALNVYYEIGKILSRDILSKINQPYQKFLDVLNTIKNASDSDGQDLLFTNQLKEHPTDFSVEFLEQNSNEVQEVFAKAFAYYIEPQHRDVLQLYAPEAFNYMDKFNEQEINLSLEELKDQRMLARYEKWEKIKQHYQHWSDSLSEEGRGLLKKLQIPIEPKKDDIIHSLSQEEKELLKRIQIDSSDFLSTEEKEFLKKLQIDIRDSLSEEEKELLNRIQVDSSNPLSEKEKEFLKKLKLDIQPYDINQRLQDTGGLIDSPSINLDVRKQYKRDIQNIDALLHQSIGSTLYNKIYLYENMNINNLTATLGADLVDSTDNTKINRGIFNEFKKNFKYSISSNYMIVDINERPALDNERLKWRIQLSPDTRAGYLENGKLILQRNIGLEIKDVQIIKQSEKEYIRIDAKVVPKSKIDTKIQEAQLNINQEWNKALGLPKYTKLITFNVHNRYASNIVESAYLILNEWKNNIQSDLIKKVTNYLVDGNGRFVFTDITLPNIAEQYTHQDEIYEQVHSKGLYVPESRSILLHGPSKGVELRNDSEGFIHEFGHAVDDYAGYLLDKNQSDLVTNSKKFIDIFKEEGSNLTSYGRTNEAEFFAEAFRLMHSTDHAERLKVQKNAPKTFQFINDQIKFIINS
pKi: −log10 of the molar value.
Response key: MET means pKi >= 4; NOT MET means pKi < 4.

Input line: Evaluate Cc1cc(N[C@H](CCCCNS(=O)(=O)c2ccc(C(=O)O)cc2)C(=O)NO)cc(C)c1F [Compound 167613] : pKi at minimum 4?
Output line: MET

Input line: Evaluate CCCCC(Nc1cccc(-c2ccccc2)c1)C(=O)NO (centres unmarked) [Compound 167202] : pKi at minimum 4?
Output line: NOT MET

Input line: Evaluate CCCC(CCC)CNCCCC[C@@H](Nc1ccc(F)c(C)c1)C(=O)NO [Compound 168167] : pKi at minimum 4?
Output line: MET

Input line: Evaluate CCCCC(Nc1ccccc1C)C(=O)NO (centres unmarked) [Compound 167292] : pKi at minimum 4?
Output line: NOT MET

Input line: Evaluate Cc1cc(N[C@H](CCCCNS(=O)(=O)c2cc(C)c(F)c(C)c2)C(=O)NO)cc(C)c1F [Compound 167530] : pKi at minimum 4?
Output line: MET
